system: rat Oxytocin Receptor (OXT), Oxtr (gene 25342) (UniProt P70536)
Sequence (P70536 whole entry, looked up): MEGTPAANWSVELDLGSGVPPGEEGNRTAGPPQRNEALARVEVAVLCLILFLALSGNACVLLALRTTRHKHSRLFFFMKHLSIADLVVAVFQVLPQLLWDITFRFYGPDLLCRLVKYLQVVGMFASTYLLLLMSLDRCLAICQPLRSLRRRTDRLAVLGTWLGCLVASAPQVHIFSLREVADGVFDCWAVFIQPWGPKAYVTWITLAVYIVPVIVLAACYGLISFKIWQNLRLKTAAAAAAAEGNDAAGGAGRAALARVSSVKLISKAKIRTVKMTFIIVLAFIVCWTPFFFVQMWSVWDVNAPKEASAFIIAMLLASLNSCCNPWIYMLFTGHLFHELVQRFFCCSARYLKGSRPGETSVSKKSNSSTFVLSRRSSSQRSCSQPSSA
protocol: NVS_GPCR_rOXT: NovaScreen (NVS) G Protein-Coupled Receptor Assay for rat Oxytocin Receptor (OXT) (AID 2283330)
Records with an inconclusive call do not appear. Calls of active or inactive are those of the source. How the source made its calls: active means hit-call score of the fitted dose curve at least 0.9, where 1 is the maximum; inconclusive means response in the unintended direction; inactive means score below 0.9.
Respond only with the outcome that fits, drawn from active, inactive

{"compound": "NC(N)=O", "class label": "inactive"}
{"compound": "CC[C@H](C)C(=O)O[C@H]1C[C@H](O)C=C2C=C[C@H](C)[C@H](CC[C@@H](O)C[C@@H](O)CC(=O)O)[C@H]21", "class label": "inactive"}
{"compound": "CCN(CC)C(=O)c1cc(S(=O)(=O)Cc2ccccc2)c(N2CCC(c3ccccc3)CC2)cc1N(CC)CCN(C)C", "class label": "active"}
{"compound": "CCCN(CCC)c1c([N+](=O)[O-])cc(C(F)(F)F)c(N)c1[N+](=O)[O-]", "class label": "inactive"}

# evaluate next
input: Called result for Cc1nc(-c2ccc3c(c2)CCN(CCC2CCC(NC(=O)/C=C/c4ccc(F)cc4)CC2)CC3)no1 (stereo not given)
output: inactive
